biological target: Serine/threonine-protein kinase WNK1 (Homo sapiens, UniProt Q9H4A3); assay: Allosteric inhibition of recombinant human N-terminal GST-tagged WNK1 catalytic domain (1 to 491 residues) expressed in baculovirus expression system using fluorescein-labeled OSR1 peptide as substrate after 3 hrs by HTRF assay
Sequence (Q9H4A3 whole entry, the tested form may be a part): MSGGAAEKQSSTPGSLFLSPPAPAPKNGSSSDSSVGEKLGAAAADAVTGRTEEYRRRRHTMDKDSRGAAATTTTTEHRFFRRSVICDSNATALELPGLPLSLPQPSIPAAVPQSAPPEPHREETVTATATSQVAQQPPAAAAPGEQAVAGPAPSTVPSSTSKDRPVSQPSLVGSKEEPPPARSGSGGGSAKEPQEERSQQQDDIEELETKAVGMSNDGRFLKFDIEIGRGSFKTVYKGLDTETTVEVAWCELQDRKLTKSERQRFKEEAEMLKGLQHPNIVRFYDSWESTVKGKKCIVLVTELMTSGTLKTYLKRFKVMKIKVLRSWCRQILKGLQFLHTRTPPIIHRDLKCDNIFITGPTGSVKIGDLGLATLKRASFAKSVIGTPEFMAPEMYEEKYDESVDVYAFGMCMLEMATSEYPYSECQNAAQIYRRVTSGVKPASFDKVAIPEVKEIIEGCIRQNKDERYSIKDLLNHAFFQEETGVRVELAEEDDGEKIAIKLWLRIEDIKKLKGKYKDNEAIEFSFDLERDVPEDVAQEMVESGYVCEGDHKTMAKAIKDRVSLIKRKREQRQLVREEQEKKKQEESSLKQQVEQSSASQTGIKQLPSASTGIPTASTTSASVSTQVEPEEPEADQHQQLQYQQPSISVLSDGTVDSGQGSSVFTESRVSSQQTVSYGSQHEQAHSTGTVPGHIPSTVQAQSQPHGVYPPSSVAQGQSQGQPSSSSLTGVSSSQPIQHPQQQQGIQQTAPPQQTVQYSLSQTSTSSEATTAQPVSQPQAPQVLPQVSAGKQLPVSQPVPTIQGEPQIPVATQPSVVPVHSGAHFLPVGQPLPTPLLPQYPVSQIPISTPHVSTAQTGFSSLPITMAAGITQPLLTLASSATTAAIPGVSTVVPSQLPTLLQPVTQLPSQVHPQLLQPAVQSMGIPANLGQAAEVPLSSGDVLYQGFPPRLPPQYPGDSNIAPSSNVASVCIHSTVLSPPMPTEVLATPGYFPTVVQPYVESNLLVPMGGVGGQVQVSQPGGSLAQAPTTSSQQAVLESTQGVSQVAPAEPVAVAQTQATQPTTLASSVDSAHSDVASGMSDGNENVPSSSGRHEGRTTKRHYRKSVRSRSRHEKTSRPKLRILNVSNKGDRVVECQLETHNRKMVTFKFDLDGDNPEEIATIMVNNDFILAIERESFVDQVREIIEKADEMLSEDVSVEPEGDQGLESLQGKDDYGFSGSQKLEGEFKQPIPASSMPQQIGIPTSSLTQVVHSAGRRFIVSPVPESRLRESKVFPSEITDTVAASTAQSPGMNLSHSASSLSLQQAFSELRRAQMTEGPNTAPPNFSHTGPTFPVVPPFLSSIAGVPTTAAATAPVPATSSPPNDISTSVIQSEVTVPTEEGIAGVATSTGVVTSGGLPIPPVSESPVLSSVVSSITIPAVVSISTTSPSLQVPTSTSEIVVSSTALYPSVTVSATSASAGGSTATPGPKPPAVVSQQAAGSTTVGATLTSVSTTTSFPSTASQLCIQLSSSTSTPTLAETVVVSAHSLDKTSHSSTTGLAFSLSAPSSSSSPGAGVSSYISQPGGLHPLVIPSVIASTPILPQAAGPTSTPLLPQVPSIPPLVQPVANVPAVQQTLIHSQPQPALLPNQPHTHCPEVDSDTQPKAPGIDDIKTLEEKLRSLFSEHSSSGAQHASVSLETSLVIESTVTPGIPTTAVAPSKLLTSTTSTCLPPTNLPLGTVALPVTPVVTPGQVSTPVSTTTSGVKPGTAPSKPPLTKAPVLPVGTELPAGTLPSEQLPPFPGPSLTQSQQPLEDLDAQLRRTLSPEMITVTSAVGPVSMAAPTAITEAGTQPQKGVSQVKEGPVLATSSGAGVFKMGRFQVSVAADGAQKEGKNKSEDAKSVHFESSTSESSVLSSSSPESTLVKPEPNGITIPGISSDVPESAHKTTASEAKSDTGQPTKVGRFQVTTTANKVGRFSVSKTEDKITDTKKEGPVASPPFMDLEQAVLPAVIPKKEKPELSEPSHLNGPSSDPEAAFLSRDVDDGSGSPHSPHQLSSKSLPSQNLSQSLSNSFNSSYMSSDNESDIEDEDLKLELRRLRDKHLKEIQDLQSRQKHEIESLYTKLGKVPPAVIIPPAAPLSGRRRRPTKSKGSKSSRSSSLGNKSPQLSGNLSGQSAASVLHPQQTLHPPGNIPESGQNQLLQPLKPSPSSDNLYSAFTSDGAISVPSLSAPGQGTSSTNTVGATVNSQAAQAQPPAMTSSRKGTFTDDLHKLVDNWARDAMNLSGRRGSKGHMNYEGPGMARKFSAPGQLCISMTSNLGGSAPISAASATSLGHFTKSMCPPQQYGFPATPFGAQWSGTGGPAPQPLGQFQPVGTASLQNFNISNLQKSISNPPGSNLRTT
quantity name: IC50 (µM)
Answer in µM, number only, no unit symbol.

Q: Given COc1cccc(-c2cc(-n3cc(CNCC4CCCCC4)c4cc(F)ccc43)ccn2)c1 , state its recorded IC50.
A: 0.039

====

assay: Cmax in Sprague-Dawley rat at 1.5 mg/kg, po measured up to 7 hrs post dose by HPLC analysis; type: ADME, organism-based; set-up: dose 1.5 mg/kg, route oral; settings: in vivo
I'd be grateful if you could share measured Cmax for these entries.
Please respond with the number in nM and leave the unit unwritten.

Q: For the compound shown here, CNc1nc(-c2cc(C(=O)N3CCN(Cc4ccc(Cl)cc4)CC3)c(Cl)cn2)cs1 , give the reported Cmax.
A: 113

Q: I'd like to know its Cmax. The compound in question is [2H]C([2H])([2H])Nc1nc(-c2cc(C(=O)N3CCN(Cc4ccc(Cl)cc4)CC3)c(Cl)cn2)cs1
A: 308

Q: Looking for the measured Cmax of CNc1nc(-c2ccc3c(c2)CCN3C(=O)c2ccccc2OCc2ccc(Cl)cc2)cs1 , can you help?
A: 2

====

assay: Half life in rat liver microsomes; format: ADME, microsome
quantity name: half-life (min)
Express the result in min but write the number alone.

Q: I am curious: what half-life value has been reported for CNc1nc(-c2cc(C(=O)N3CCN(Cc4ccc(Cl)cc4)CC3)c(Cl)cn2)cs1 ?
A: 13

Q: Record request: half-life value, item COc1cccc(-c2cc(-n3cc(CNCC(C)C)c4ccccc43)c(C)cn2)c1
A: 15

Q: Reported half-life for [2H]C([2H])([2H])Nc1nc(-c2cc(C(=O)N3CCN(Cc4ccc(Cl)cc4)CC3)c(Cl)cn2)cs1 : what is it?
A: 15

====

molecular target: Serine/threonine-protein kinase WNK1 (Homo sapiens); assay: Allosteric inhibition of recombinant human N-terminal GST-tagged WNK1 catalytic domain (1 to 491 residues) expressed in baculovirus expression system using fluorescein-labeled OSR1 peptide as substrate after 3 hrs by mobility shift assay
quantity name: pIC50
Value format note: pIC50 is -log10 of concentration (mol/L); just state the number.

Q: Please report the recorded pIC50 for c1ccc(-c2cccc(-n3cc(CNCC4CCCCC4)c4ccccc43)c2)cc1 .
A: 5.67

Q: Please look up its pIC50: [2H]C([2H])([2H])Nc1nc(-c2cc(C(=O)N3CCN(Cc4ccc(Cl)cc4)CC3)c(Cl)cn2)cs1
A: 8.22

Q: pIC50 lookup needed for COc1cccc(-c2cc(-n3cc(CNCC(C)C)c4ccccc43)c(C)cn2)c1 , thanks.
A: 7.02

Q: Which pIC50 is reported for this compound? CNc1nc(-c2ccc3c(c2)CCN3C(=O)c2ccccc2OCc2ccc(Cl)cc2)cs1
A: 6.38

Q: What pIC50 value was documented for this compound, COc1cccc(-c2cc(-n3cc(CNCC4CCCCC4)c4ccccc43)ccn2)c1 ?
A: 7.22

Q: Give the measured pIC50 of CNc1nc(-c2cc(C(=O)N3CCN(Cc4ccc(Cl)cc4)CC3)c(Cl)cn2)cs1 .
A: 8.40

Q: Recorded pIC50 of COc1cccc(-c2cc(C(=O)N(C)[C@@H]3CCN(Cc4ccc(Cl)cc4)C3)c3ccccc3n2)c1 , please.
A: 6.12

Q: Bench note: what pIC50 did COc1cccc(-c2cc(C(=O)N3CCN(Cc4ccccc4)CC3)c3ccccc3n2)c1 show?
A: 6.21

Q: What does the record list as pIC50 for CNc1nc(-c2cc(C(=O)N3CCN(Cc4ccc(Cl)cc4)CC3)ccn2)cs1 ?
A: 6.97

Q: Quick one: pIC50 of COc1cccc(-c2cccc(-n3cc(CNCC4CCCCC4)c4ccccc43)c2)c1 ?
A: 6.79

Q: Which value of pIC50 has been reported for COc1cccc(-c2cc(C(=O)N3CCN(Cc4ccc(Cl)cc4)CC3)ccn2)c1 in the records?
A: 6.01
